# study_target: p50 WT (Mus musculus, UniProt P25799 39-364)
# Sequence (P25799 39-364): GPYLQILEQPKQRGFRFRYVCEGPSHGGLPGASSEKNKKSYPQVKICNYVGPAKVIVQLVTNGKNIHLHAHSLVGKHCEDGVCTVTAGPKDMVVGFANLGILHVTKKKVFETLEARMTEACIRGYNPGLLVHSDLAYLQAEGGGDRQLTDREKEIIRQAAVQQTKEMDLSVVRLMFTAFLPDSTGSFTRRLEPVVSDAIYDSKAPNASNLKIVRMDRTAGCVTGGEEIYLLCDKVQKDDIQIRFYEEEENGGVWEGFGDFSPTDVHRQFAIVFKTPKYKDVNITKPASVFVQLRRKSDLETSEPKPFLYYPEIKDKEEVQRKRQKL
# method_notes: native MS titration; KD: 3 uM p50 with 0.2-6 uM DNA in 300 mM NH4OAc, 5 min, room temperature, 10 uL, pH not stated; native nESI-(IM-)MS
# assay_conditions: protein: recombinant; tags: His6-MBP removed by 3C protease; chain copies: 2; blunt; strand is self-complementary
recorded_metric: Kd (nM)

{"binder": "kB DNA oligomer (KD determination) (dsDNA) DNA 1: CCCCCGGGGGCCCCCGGGGG DNA 2: CCCCCGGGGGCCCCCGGGGG", "observed": 37}

Measured values drawn from paper PMC6318249 for this set.
